- system: mouse Siglec-2-Fc-Avi (CD22) (Mus musculus)
- Sequence (P35329 22-708 limits assumed): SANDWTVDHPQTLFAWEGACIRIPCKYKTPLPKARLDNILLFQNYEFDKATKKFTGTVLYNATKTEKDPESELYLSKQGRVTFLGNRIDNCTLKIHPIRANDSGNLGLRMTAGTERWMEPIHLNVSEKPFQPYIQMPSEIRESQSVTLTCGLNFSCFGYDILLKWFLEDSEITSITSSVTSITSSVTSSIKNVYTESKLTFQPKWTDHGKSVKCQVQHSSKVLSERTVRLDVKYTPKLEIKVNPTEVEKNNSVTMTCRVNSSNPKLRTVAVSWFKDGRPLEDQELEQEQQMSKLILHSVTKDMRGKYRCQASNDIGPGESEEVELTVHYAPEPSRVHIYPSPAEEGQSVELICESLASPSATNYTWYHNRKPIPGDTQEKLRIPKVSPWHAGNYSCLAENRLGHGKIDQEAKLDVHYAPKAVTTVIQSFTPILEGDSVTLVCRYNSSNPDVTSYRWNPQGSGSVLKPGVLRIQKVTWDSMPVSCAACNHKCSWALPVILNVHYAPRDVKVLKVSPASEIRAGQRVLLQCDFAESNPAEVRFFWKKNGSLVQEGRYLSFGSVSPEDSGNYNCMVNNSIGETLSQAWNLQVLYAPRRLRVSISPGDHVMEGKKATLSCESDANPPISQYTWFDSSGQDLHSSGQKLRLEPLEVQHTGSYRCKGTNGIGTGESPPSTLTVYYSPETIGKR
Listed compounds paired with reported Kd

C#CCOCCOCCO[C@]1(C(=O)O)C[C@H](O)[C@@H](NC(=O)CNC(C)=O)[C@H]([C@H](O)[C@H](O)CNC(=O)Cc2ccc(-c3ccc(O)cc3)cc2)O1 [Compound 57] :: > 10 µM
C#CCOCCOCCO[C@]1(C(=O)O)C[C@H](O)[C@@H](NC(=O)CO)[C@H]([C@H](O)[C@H](O)CNC(=O)Cc2ccc(-c3ccccc3O)cc2)O1 [Compound 68] :: 1 to 10 µM
CC(=O)NCCOCCOCCOCCOCCNC(=O)CCOCCO[C@]1(C(=O)O)C[C@H](O)[C@@H](NC(=O)CO)[C@H]([C@H](O)[C@H](O)CNC(=O)Cc2ccc(-c3ccccc3)cc2)O1 [Compound 238] :: 1 to 10 µM
C#CCOCCCCCCO[C@]1(C(=O)O)C[C@H](O)[C@@H](NC(=S)NC)[C@H]([C@H](O)[C@H](O)CNC(=O)Cc2ccc(Cl)cc2)O1 [Compound 84] :: 1 to 10 µM
C#CCOCCOCCO[C@]1(C(=O)O)C[C@H](O)[C@@H](NC(=O)CO)[C@H]([C@H](O)[C@H](O)CNC(=O)Cc2ccc(-c3cccnc3)cc2)O1 [Compound 82] :: > 10 µM

Prompt: Would you mind telling me what Kd value was observed for C#CCOCCCCCCO[C@]1(C(=O)O)C[C@H](O)[C@@H](NC(=O)C(O)CO)[C@H]([C@H](O)[C@H](O)CNC(=O)Cc2ccc(Cl)cc2)O1 (some centres unmarked) [Compound 210] ?
Response: < 1 µM

Prompt: Query (compound): C#CCOc1ccc(CO[C@]2(C(=O)O)C[C@H](O)[C@@H](NC(=O)CO)[C@H]([C@H](O)[C@H](O)CNC(=O)Cc3cccc(O)c3)O2)cc1 [Compound 150] ; field requested: Kd
Response: 1 to 10 µM

Prompt: Need Kd of CC(=O)NCCOCCOCCOCCOCCC(=O)NCCCCCCO[C@]1(C(=O)O)C[C@H](O)[C@@H](NC(=O)CO)[C@H]([C@H](O)[C@H](O)CNC(=O)Cc2ccc(-c3nnn[nH]3)cc2)O1 [Cpd. 235] , thanks.
Response: < 1 µM

Prompt: What Kd value was documented for this compound, C#CCOCCOCCO[C@]1(C(=O)O)C[C@H](O)[C@@H](NC(=O)CO)[C@H]([C@H](O)[C@H](O)CNC(=O)Cc2ccc(-c3ccccc3)nc2)O1 [Compound 79] ?
Response: > 10 µM

Prompt: Would you mind telling me what Kd value was observed for C#CCOCCOCCO[C@]1(C(=O)O)C[C@H](O)[C@@H](NC(=O)CO)[C@H]([C@H](O)[C@H](O)CNC(=O)c2cccc(O)c2)O1 [Compound 29] ?
Response: > 10 µM

Prompt: What does the record list as Kd for C#CCCOc1ccc(CO[C@]2(C(=O)O)C[C@H](O)[C@@H](NC(=O)CO)[C@H]([C@H](O)[C@H](O)CNC(=O)C(F)(F)c3ccccc3)O2)cc1 [Compound 172] ?
Response: 1 to 10 µM
